# credit: paper PMC8307404

Reported remaining activity at 1 µM values follow for various compounds
# Target system: Lck (Homo sapiens)
# Sequence (P06239 whole entry): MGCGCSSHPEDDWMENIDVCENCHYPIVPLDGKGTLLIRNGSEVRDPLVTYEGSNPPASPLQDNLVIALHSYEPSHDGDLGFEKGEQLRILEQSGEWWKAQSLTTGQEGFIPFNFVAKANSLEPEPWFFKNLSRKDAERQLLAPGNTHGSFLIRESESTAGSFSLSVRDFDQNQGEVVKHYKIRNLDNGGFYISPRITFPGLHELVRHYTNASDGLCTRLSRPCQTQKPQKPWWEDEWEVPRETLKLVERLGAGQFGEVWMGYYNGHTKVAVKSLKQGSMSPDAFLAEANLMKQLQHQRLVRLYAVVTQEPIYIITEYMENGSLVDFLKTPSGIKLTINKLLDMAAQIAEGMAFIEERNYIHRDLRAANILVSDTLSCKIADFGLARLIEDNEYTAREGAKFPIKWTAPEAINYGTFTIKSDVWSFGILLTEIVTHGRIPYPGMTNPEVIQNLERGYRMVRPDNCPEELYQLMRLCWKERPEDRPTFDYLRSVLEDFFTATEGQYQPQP
# Assay overview: Kinase profiling (radiometric filter-binding)
# Assay type: biochemical
# Test context: 1 µM inhibitor, read-out: Residual activity, %
Square brackets hold non-standard residues; d marks the D form. Peptide text beside a SMILES is read from it. * marks the point of attachment. X3 = O=C(CCCCCNCc1nc2c(sc3cc(Br)cnc32)c(=O)[nH]1)*
Numeric only. Scale: %

1) N=C(N)NCCC[C@@H](NC(=O)CNC(=O)[C@@H](CCCNC(=N)N)NC(=O)[C@@H](CCCNC(=N)N)NC(=O)Cn1cc(CNCc2nc3c(sc4ccc(Br)cc43)c(=O)[nH]2)nn1)C(=O)N[C@H](CCCCN)C(N)=O [Compound 3, BBTP-Amt-(D-Arg)2-Gly-D-Arg-D-Lys-NH2] | 78
2) N=C(N)NCCC[C@@H](NC(=O)CCCCCNC(=O)Cn1cnc2c(I)c(I)c(I)c(I)c21)C(=O)N[C@H](CCCNC(=N)N)C(=O)N[C@H](CCCNC(=N)N)C(=O)N[C@H](CCCNC(=N)N)C(=O)N[C@H](CCCNC(=N)N)C(=O)N[C@H](CCCNC(=N)N)C(=O)N[C@H](CCCCN)C(N)=O [ARC-3125, TIBI-CH2-C(=O)-Ahx-(D-Arg)6-D-Lys-NH2] | 226
3) N=C(N)NCCC[C@@H](NC(=O)CCCCCNCc1nc2c(sc3cc(Br)cnc32)c(=O)[nH]1)C(=O)N[C@H](CCCNC(=N)N)C(=O)N[C@H](CCCNC(=N)N)C(=O)N[C@H](CCCNC(=N)N)C(=O)N[C@H](CCCNC(=N)N)C(=O)N[C@H](CCCNC(=N)N)C(=O)N[C@H](CCCCN)C(N)=O [ARC-3126, BPTP-Ahx-(D-Arg)6-D-Lys-NH2] (X3-[dR][dR][dR][dR][dR][dR][dK]-NH2) | 132

The compound identified as N=C(N)NCCC[C@@H](NC(=O)CNC(=O)[C@@H](CCCNC(=N)N)NC(=O)[C@@H](CCCNC(=N)N)NC(=O)CCCCCCCNCc1nc2c(sc3ccc(Br)cc32)c(=O)[nH]1)C(=O)N[C@H](CCCCN)C(N)=O [Compound 2, BBTP-Aoc-(D-Arg)2-Gly-D-Arg-D-Lys-NH2] registered its remaining activity at 1 µM at 103

So, N=C(N)NCCC[C@@H](NC(=O)CNC(=O)[C@@H](CCCNC(=N)N)NC(=O)[C@@H](CCCNC(=N)N)NC(=O)CCCCCCCNCc1nc2c(sc3cc(Br)cnc32)c(=O)[nH]1)C(=O)N[C@H](CCCCN)C(N)=O [Compound 1, BPTP-Aoc-(D-Arg)2-Gly-D-Arg-D-Lys-NH2] ? Its remaining activity at 1 µM was 94

* * *

# Target system: PKCγ (Homo sapiens, UniProt P05129)
# Assay overview: Kinase profiling (radiometric filter-binding)
# Assay type: biochemical
# Test context: 1 µM inhibitor, read-out: Residual activity, %
Readout: remaining activity at 1 µM (%)
The answer is to be given in %; state only the numeric part.

According to the records, this molecule N=C(N)NCCC[C@@H](NC(=O)CNC(=O)[C@@H](CCCNC(=N)N)NC(=O)[C@@H](CCCNC(=N)N)NC(=O)CCCCCCCNCc1nc2c(sc3ccc(Br)cc32)c(=O)[nH]1)C(=O)N[C@H](CCCCN)C(N)=O displays remaining activity at 1 µM of 97

Item: N=C(N)NCCC[C@@H](NC(=O)CNC(=O)[C@@H](CCCNC(=N)N)NC(=O)[C@@H](CCCNC(=N)N)NC(=O)Cn1cc(CNCc2nc3c(sc4ccc(Br)cc43)c(=O)[nH]2)nn1)C(=O)N[C@H](CCCCN)C(N)=O | remaining activity at 1 µM: 105
